# ASSAY EXPLANATION: Lipophilicity, log P of the compound
# Format: physicochemical
# ASSAY CONTEXT: octanol/water; read-out: logP
MEASUREMENT NAME: logP

> print(dat)
                                   compound  measurement.name  result
1  CC(Cl)/C=C/C(=O)N(Cc1ccc(Cl)cc1)CC(C)C (stereo unspecified)              logP    4.68

The reported measurements were obtained from ChEMBL document CHEMBL3046150.
